This collection of values is drawn from the OligoGym collection.

Details: siRNA; also: test system not given here
HELM strings list units from the 5' end as sugar, base in round brackets, then linkage (d deoxyribose, r ribose, m 2'-O-methyl, p phosphodiester). Strings are as the collection lists them, not checked against the first reports. ss, as = sense and antisense strand; [lna] = locked nucleic acid (LNA); [s4r] = 4'-thioribose
Measured target mRNA knockdown of individual entries
ENDPOINT NAME: target mRNA knockdown (%)

# SUBSTANCE, VALUE REPORTED
data = [
    ("RNA1{r(C)p.r(G)p.r(U)p.r(A)p.r(C)p.r(G)p.r(C)p.r(G)p.r(G)p.r(A)p.r(A)p.r(U)p.r(A)p.r(C)p.r(U)p.r(U)p.r(C)p.[s4r](G)p.[s4r](A)p.r(T)p.r(T)}|RNA2{[s4r](U)p.[s4r](C)p.r(G)p.r(A)p.r(A)p.r(G)p.r(U)p.r(A)p.r(U)p.r(U)p.r(C)p.r(C)p.r(G)p.r(C)p.r(G)p.r(U)p.r(A)p.r(C)p.r(G)p.r(T)p.r(T)}$$$RNA1{StrandType:ss}|RNA2{StrandType:as}$", 91.2),
    ("RNA1{r(A)p.r(C)p.r(G)p.r(U)p.m(C)p.r(A)p.r(C)p.r(C)p.r(G)p.r(A)p.r(G)p.r(G)p.r(A)p.r(G)p.r(A)p.r(A)p.r(G)p.r(U)p.r(A)p.r(T)p.r(T)}|RNA2{m(U)p.r(A)p.r(C)p.r(U)p.r(U)p.r(C)p.r(U)p.r(C)p.r(C)p.r(U)p.r(C)p.r(G)p.r(G)p.m(U)p.r(G)p.r(A)p.r(C)p.r(G)p.r(U)p.r(T)p.r(T)}$$$RNA1{StrandType:ss}|RNA2{StrandType:as}$", 80),
    ("RNA1{r(C)p.r(U)p.r(U)p.r(A)p.r(C)p.r(G)p.r(C)p.r(U)p.r(G)p.r(A)p.r(G)p.r(U)p.r(A)p.r(C)p.r(U)p.r(U)p.r(C)p.r(G)p.r(A)p.r(T)p.r(T)}|RNA2{r(U)p.r(C)p.r(G)p.r(A)p.r(A)p.r(G)p.r(U)p.r(A)p.r(C)p.r(U)p.r(C)p.r(A)p.r(G)p.r(C)p.[lna](G)p.r(U)p.r(A)p.r(A)p.r(G)p.r(T)p.r(T)}$$$RNA1{StrandType:ss}|RNA2{StrandType:as}$", 85),
    ("RNA1{r(U)p.r(G)p.r(A)p.r(G)p.r(A)p.r(G)p.r(A)p.r(A)p.r(A)p.r(G)p.r(C)p.r(A)p.r(C)p.r(A)p.r(G)p.r(A)p.r(A)p.r(A)p.r(A)p.r(T)p.r(T)}|RNA2{[lna](T)p.r(U)p.r(U)p.r(U)p.r(C)p.r(U)p.r(G)p.r(U)p.r(G)p.r(C)p.r(U)p.r(U)p.r(U)p.r(C)p.r(U)p.r(C)p.r(U)p.r(C)p.r(A)p.[lna](T)p.[lna](T)}$$$RNA1{StrandType:ss}|RNA2{StrandType:as}$", 45),
    ("RNA1{r(U)p.r(A)p.r(C)p.r(C)p.r(G)p.r(A)p.r(G)p.r(A)p.r(A)p.r(U)p.r(G)p.m(A)p.r(G)p.m(C)p.r(C)p.m(U)p.r(G)p.m(A)p.r(U)p.r(T)p.r(T)}|RNA2{m(A)p.r(U)p.m(C)p.r(A)p.m(G)p.r(G)p.m(C)p.r(U)p.m(C)p.r(A)p.m(U)p.r(U)p.m(C)p.r(U)p.m(C)p.r(G)p.m(G)p.r(U)p.m(A)p.r(T)p.r(T)}$$$RNA1{StrandType:ss}|RNA2{StrandType:as}$", 23),
]
